Assay: NCI Yeast Anticancer Drug Screen. Data for the mlh1 rad18 strain (AID 175)
Condition info: S. cerevisiae mlh1 rad18 strain growth inhibition; at 50.0 µM; hits give high values
About 79,000 compounds went through this panel and 15% of them were active in at least one assay; those are over-represented in the sample as a whole. The source made the active and inactive calls. Rule as the data show it: active = growth inhibition above about 70%; inactive = the rest.
Would you kindly list growth inhibition for each of these compounds?

stdin: Look up growth inhibition for this compound: CCC(=O)OC1(c2ccccc2)C(CN(C)C)CCCC1CN(C)C (centres undefined)
stdout: -14.9% (inactive)

stdin: What value of measured growth inhibition is listed for C1CCC(N(CCN(C2CCCCC2)C2CCCCC2)C2CCCCC2)CC1 ?
stdout: -11.9% (inactive)

stdin: Entry Cc1ncc2c(n1)NC(c1ccc([N+](=O)[O-])cc1)NC2 (centres undefined) : reported growth inhibition = ?
stdout: -1.7% (inactive)

stdin: Please look up its growth inhibition: Cn1cnc2nc(N)[nH]c(=O)c21
stdout: 13.7% (inactive)

###

Assay: NCI Yeast Anticancer Drug Screen. Data for the sgs1 mgt1 strain (AID 161);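 also: 0% = growth of cultures given vehicle only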
Condition info: S. cerevisiae sgs1 mgt1 strain, at 50.0 µM, hits give high values
About 79,000 compounds went through this panel and 15% of them were active in at least one assay; those are over-represented in the sample as a whole.
Value kind: growth inhibition (%)
Express it in %; write the number only.

stdin: Can you share its growth inhibition? I mean this compound: N#C/C(=C\c1ccccc1[N+](=O)[O-])C(=O)O
stdout: 23.2

stdin: What does the data say about its growth inhibition? Entry: c1ccc2c(c1)nnn2CN1CCOCC1
stdout: -26.6

stdin: Which growth inhibition value is on record for O=C(O)/C=C/c1ccc(Oc2ccccc2C(=O)O)o1 ?
stdout: 5.05

stdin: Entry under review: Cc1ccc2c(c1)NC(c1ccc(C(=O)O)cc1)c1cccn1-2 (stereo not drawn) . Reported growth inhibition?
stdout: 0.45

stdin: Which growth inhibition value is on record for C/C(CC(=O)N1CCCCC1)=N\NC(N)=S ?
stdout: -18.9

stdin: Which value of growth inhibition has been reported for CCN(CC)CCOC(=O)c1cc(C(C)O)nc2ccccc12 (stereo not drawn) in the records?
stdout: -10.5

stdin: For the compound Nc1c(Cl)cc(C(=O)NC2CC2)cc1Cl , what growth inhibition is on record?
stdout: -11.2

stdin: I would be grateful if you could share the reported growth inhibition for COC(=O)/C=C/C1C2C3(CCC(C)C12C)OCCS3 (stereo not drawn) .
stdout: -4.45

stdin: Item under review: COC(=N)CCCl . Reported growth inhibition?
stdout: 10.8

stdin: Any idea what growth inhibition was measured for C=CC(C)(O)/C=C/C=C(\C)C(CC1OC1(C)C)OC(=O)/C(C)=C\C (stereo not drawn) ?
stdout: 3.55

stdin: Requested field: growth inhibition. Item: COC1OC2COC(c3ccccc3)OC2C(OS(=O)(=O)c2ccc(Br)cc2)C1OS(=O)(=O)c1ccc(Br)cc1 (stereo not drawn)
stdout: -1.3

stdin: Sample O=c1cc(-c2ccc3c(c2)OCO3)oc2ccccc12 — what was its growth inhibition?
stdout: 6

stdin: What value of measured growth inhibition is listed for C(#CC(Sc1ccccc1)=C(Sc1ccccc1)Sc1ccccc1)Sc1ccccc1 ?
stdout: -21.9

###

Assay: NCI Yeast Anticancer Drug Screen. Data for the mlh1 rad18 strain (AID 175)
Condition info: S. cerevisiae mlh1 rad18 strain growth inhibition; at 50.0 µM; hits give high values
The panel holds about 79,000 compounds, 15% with a hit somewhere; the sample as a whole holds those more often. The source made the active and inactive calls. No stated cut-off is given here; in the data, active means growth inhibition above about 70%; inactive means the rest.
Value kind: growth inhibition

stdin: Quick one: growth inhibition for CC(C)c1ccccc1NC(=O)C(=O)Cc1nc2ccccc2s1 ?
stdout: 51.4% (inactive)

stdin: Fill in the blank: the reported growth inhibition of CCCCCCCCCCCCCCCc1cc(O)ccc1N=O is ____.
stdout: -11.7% (inactive)

stdin: Can you share its growth inhibition? I mean this compound: O=C(O)c1cccc(/C=N/O)c1O
stdout: 8.55% (inactive)

stdin: Look up growth inhibition for this compound: C[N+](C)(C)c1ncncn1
stdout: -0.1% (inactive)

stdin: # get_value(readout='growth inhibition', item= O=[N+]([O-])c1ccc(Nc2ccccc2)c2nonc12 )
stdout: 29.4% (inactive)

stdin: # lookup: growth inhibition of O=C1OCCc2c1[nH]c1ccccc21
stdout: 17.6% (inactive)

stdin: # get_value(readout='growth inhibition', item= COc1ccn(C2OC(=O)C(C)(C)C2=O)c(=O)n1 (stereo not drawn) )
stdout: -12.6% (inactive)

stdin: Record request: growth inhibition value, item Cc1oc(C)c2c(N=Nc3ccc([N+](=O)[O-])cc3[N+](=O)[O-])c3ccccc3c(O)c12
stdout: 49.6% (inactive)

stdin: Param item = CC(NC(=O)CNC(=O)CNC(=O)OCc1ccccc1)C(=O)OCc1ccccc1 (stereo not drawn) ; retrieve measured growth inhibition.
stdout: 5.4% (inactive)

stdin: Given the compound O=C(Cc1nccc2c1[nH]c1ccccc12)OC1C#CCSCC#C/C=C\1 (stereo not drawn) , what is its reported growth inhibition?
stdout: -1.15% (inactive)

stdin: Can you share its growth inhibition? I mean this compound: CC(C)/C=N\N1C(N)=C(C#N)C(C#N)(C#N)C1C(C)C (stereo not drawn)
stdout: -41.3% (inactive)

stdin: # query: growth inhibition of entry CCOC(=O)c1cc2c(OC)cc(OC)cc2oc1=O
stdout: 2.55% (inactive)

stdin: Consider the compound C=C1CN2CCc3c([nH]c4ccccc34)C2CC1CC(=O)N(C)C (stereo not drawn) and give its measured growth inhibition.
stdout: -9.65% (inactive)

stdin: growth inhibition for NC(=O)N/N=C1/CCC(O)CC1CC(=O)O (stereo not drawn) ?
stdout: -2.95% (inactive)

stdin: Reported growth inhibition for O=C1c2c(/C=C/c3ccc(Cl)c(Cl)c3)nc3ccccc3c2C(=O)N1CCN1CCCCC1 : what is it?
stdout: 79.3% (active)

stdin: # get_value(readout='growth inhibition', item= CCOC(=O)C(=CNc1ccc2c(c1)OCO2)C(=O)OCC )
stdout: 14.8% (inactive)

stdin: Which growth inhibition value belongs to COc1ccc2c(c1)C1Oc3ccccc3CC1(O)CO2 (stereo not drawn) ?
stdout: 51.5% (inactive)

stdin: Could you tell me which growth inhibition is on file for CCOc1ccccc1N ?
stdout: -20.1% (inactive)

stdin: Value lookup for growth inhibition; key = CCCCCCCNC(C)=O
stdout: -5% (inactive)

stdin: Consider the compound shown here: CCC1SC(N)=NC1=O (stereo not drawn) What is its recorded growth inhibition?
stdout: 5.55% (inactive)

stdin: What does the record list as growth inhibition for Cc1ccc(S(=O)(=O)N2CCCSCCN(S(=O)(=O)c3ccc(C)cc3)CCCSCC2)cc1 ?
stdout: -24.4% (inactive)

stdin: Entry under review: O=COC1CC2CC1c1ccccc12 (stereo not drawn) . Reported growth inhibition?
stdout: 6.8% (inactive)

stdin: For the compound shown here, CCCCCCC1OCC(CC)(CC)CO1 , give the reported growth inhibition.
stdout: 26.4% (inactive)

stdin: Requested field: growth inhibition. Item: Nc1ncnc(N2CCOCC2)n1
stdout: -8.3% (inactive)

stdin: What value of growth inhibition has been recorded for this entry: COc1cc(CN2CCCCC2)cc2cc(C(=O)O)c(=O)oc12
stdout: -11.9% (inactive)

stdin: Given O=c1ccc2c(-c3ccccc3S(=O)(=O)O)c3ccc(O)c(O)c3oc-2c1O , state its recorded growth inhibition.
stdout: 4.4% (inactive)

stdin: I would be grateful if you could share the reported growth inhibition for CC(C)/C(Cl)=N/OC(=O)Nc1ccc(Cl)c(Cl)c1 .
stdout: 82.8% (active)

stdin: Fill in the blank: the reported growth inhibition of CCCc1c(C(=O)OCC)[nH]c(-c2ccc(-c3[nH]c(C(=O)OCC)c(CCC)c3C(=O)OCC)s2)c1C(=O)OCC is ____.
stdout: -16.1% (inactive)

stdin: For the compound O=C1NC(=O)C(c2ccc(Cl)cc2)(c2cccc(Cl)c2)N1 (stereo not drawn) , what growth inhibition is on record?
stdout: -5.9% (inactive)

stdin: // query growth inhibition value for entry CC(=O)NCCSC(=O)CCCCCCCCC(=O)SCCNC(C)=O
stdout: 6.5% (inactive)

stdin: Suppose we examine the compound Cn1c(=O)n(C2OC(CO)C(O)C2O)c2ncnc(N)c21 (stereo not drawn) ; what growth inhibition value has been reported?
stdout: 4.65% (inactive)

stdin: Could you share which growth inhibition value was measured for COC1CCC2(C)C3CCC4C(=CCC5C(C)(C)C(O)CCC45C)CC3(C)CCC2C1(C)C (stereo not drawn) ?
stdout: -12.7% (inactive)

stdin: Consider the compound shown here: Brc1ccccn1 What is its recorded growth inhibition?
stdout: 22.8% (inactive)

stdin: Item under review: COS(=O)c1cc(Cl)cc(Cl)c1O (stereo not drawn) . Reported growth inhibition?
stdout: 2.25% (inactive)

stdin: For the compound CCOC(=O)CC(C)C1(C=O)CCCCC1=O (stereo not drawn) , what growth inhibition is on record?
stdout: -17.4% (inactive)

stdin: Value lookup for growth inhibition; key = Cc1cc2c(C(C)C)c(O)c(O)c(C=NCc3ccc(Br)cc3)c2c(O)c1-c1c(C)cc2c(C(C)C)c(O)c(O)c(C=NCc3ccc(Br)cc3)c2c1O
stdout: 27.8% (inactive)

stdin: // returns reported growth inhibition for input CCOC(=O)C(N=Cc1ccc([N+](=O)[O-])cc1)C(O)c1ccc([N+](=O)[O-])cc1 (stereo not drawn)
stdout: 7.75% (inactive)

stdin: Look up growth inhibition: CC1=NN(C(=O)c2cccnc2)C(=O)C1N=Nc1ccc(S(=O)(=O)Nc2ccccn2)cc1 (stereo not drawn)
stdout: 1.8% (inactive)

stdin: Consider the compound OCCCCC(c1ccc(O)cc1)c1ccc(O)cc1 and give its measured growth inhibition.
stdout: -14.7% (inactive)

stdin: Field request: growth inhibition | item: O=[N+]([O-])c1ccc(Cl)c(C(F)(F)F)c1
stdout: -15.7% (inactive)

stdin: Bench note: what growth inhibition did CC1(C)COC(C)(Cc2ccccc2)OC1 show?
stdout: -11.7% (inactive)

stdin: State the recorded growth inhibition for this entry: Cc1c(CCNC(=O)C(F)(F)F)ccc2c1[nH]c1ccccc12
stdout: -5.95% (inactive)

stdin: Could you share which growth inhibition value was measured for CCOC(=O)c1cn(CC)c2c(ccc3cnccc32)c1=O ?
stdout: 10.2% (inactive)
